Reference source: BindingDB's records for patent US20230348450

- Assayed Target: UniProt P07738
- Sequence (P07738 whole entry): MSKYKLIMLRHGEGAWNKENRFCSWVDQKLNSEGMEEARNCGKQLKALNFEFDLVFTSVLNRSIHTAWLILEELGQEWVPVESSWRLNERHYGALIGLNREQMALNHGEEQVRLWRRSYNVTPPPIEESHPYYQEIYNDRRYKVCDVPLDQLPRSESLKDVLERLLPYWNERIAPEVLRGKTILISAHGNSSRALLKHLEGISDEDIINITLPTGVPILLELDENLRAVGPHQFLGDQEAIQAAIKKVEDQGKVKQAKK
pIC50: −log10 of the molar value.
Give Yes when the value for pIC50 is at least 7. Give No when it is less.

Prompt: API: above_or_equal(metric=pIC50, cutoff=7) for item Cc1nc(COCC(=O)N(C)C)sc1-c1csc(-c2cc(O)c(C(=O)O)cc2F)n1 [US20230348450, Example 7]
Completion: Yes

Prompt: API: above_or_equal(metric=pIC50, cutoff=7) for item COC(=O)NCc1nc(C)c(-c2cccc(-c3ccc(C(=O)O)c(O)c3)n2)s1 [US20230348450, Example 9]
Completion: No

---

- Assayed Target: Bisphosphoglycerate mutase (Homo sapiens, UniProt P07738)
- Sequence (P07738 whole entry): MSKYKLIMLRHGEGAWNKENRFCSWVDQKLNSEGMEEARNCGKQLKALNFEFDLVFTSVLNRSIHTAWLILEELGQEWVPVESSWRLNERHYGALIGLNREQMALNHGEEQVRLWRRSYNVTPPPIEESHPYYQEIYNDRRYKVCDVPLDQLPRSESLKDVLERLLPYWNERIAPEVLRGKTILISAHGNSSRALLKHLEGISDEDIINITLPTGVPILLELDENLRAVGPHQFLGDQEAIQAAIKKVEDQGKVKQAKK
Recorded Metric: pIC50
To interpret pIC50, take it as minus log10 of a concentration measured in moles per litre.

Prompt: Query the reported pIC50 for Bisphosphoglycerate mutase (Homo sapiens, UniProt P07738); item: Cc1nc(COc2ncccn2)sc1-c1cccc(-c2ccc(S(=O)(=O)CC(=O)O)cc2)n1
Completion: 6.84

Prompt: Query the reported pIC50 for Bisphosphoglycerate mutase (Homo sapiens, UniProt P07738); item: COC(=O)NCc1nc(C)c(-c2nsc(-c3cc(O)c(C(=O)O)cc3F)n2)s1
Completion: 7.02

Prompt: Query the reported pIC50 for Bisphosphoglycerate mutase (Homo sapiens, UniProt P07738); item: CC(=O)NCc1nc(C)c(-c2csc(-c3cc(O)c(C(=O)O)cc3F)n2)s1
Completion: 7.02

Prompt: Query the reported pIC50 for Bisphosphoglycerate mutase (Homo sapiens, UniProt P07738); item: Cc1nc(COc2ncccn2)sc1-c1cccc(-c2ccc(C(=O)O)c(O)c2)n1
Completion: 7.15
